Biological target: T1, VEGFR-3-Fc (UniProt P35916 25-328)
T1 construct: domain: first three Ig domains; conditioned supernatant of 293T cells; also called VEGFR-3-Fc fusion protein; not shown: Fc fragment of the pIg vector
T1 sequence (looked up): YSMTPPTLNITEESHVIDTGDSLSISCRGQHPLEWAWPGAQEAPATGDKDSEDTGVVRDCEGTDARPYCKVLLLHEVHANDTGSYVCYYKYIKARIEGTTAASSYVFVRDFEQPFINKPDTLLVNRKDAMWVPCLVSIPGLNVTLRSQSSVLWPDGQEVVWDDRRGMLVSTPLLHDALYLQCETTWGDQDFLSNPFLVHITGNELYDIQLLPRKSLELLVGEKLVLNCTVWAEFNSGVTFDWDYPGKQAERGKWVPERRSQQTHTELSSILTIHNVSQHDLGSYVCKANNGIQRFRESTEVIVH
Experiment: receptor-Fc IP

binder: 72-6 (ligand) GQNHHEVVKSIDNEWRKTQCMPREVCIDVGKEFGVATNTFFKPPCVSVYRCGGCCNDEGLECMNTSTSYLSKTLFEIKPHQGQHIGEMSFANHTSCRCMSKLD
binding result: binds
//
binder: 22-6 (ligand) AHYNTEILKSIDNEWRKTQCMPREVCIDVGKEFGVATNTFFKPPCVSVYRCGGCCNDEGLECMNTSTSYLSKTLFEIKPHQGQHIGEMSFANHTSCRCMSKLD
binding result: binds
//
binder: 54-10 (ligand) AHYNTEILKSIDNEWRKTQCMPIETLVDIFQEFGVATNTFFKPSCVPLMRCGGCCNDEGLECMNTSTSYLSKTLFEITVPLSQGPKPVTISFLQHNKCECRPKKD
binding result: no binding
//
binder: 21-12 (ligand) AHYNTEILKSIDNEWRKTQCMPREVCIDVGKEYPDEIEYIFKPSCVPLMRCGGCCNSEGLQCMNTSTSYLSKTLFEITVPLSQGPKPVTISFLQHNKCECRPKKD
binding result: no binding
